Source listed as the supplement of paper PMC11451515.

# System: P12-Ichikawa
# assay info: cell viability relative to DMSO control; higher = less cytotoxic
# experimental conditions: RPMI 5 mM glucose + 10% FBS; 48 h; 15.4 µM
cell viability less than 90% is y; cell viability greater than or equal to 90% is n.

{"compound": "O=C1CCc2ccc(OCCCCN3CCN(c4cccc(Cl)c4Cl)CC3)cc2N1", "assigned category": "n"}
{"compound": "Cc1[nH]c(/C=C2\\C(=O)Nc3ccc([S+](=O)([O-])Cc4c(Cl)cccc4Cl)cc32)c(C)c1C(=O)N1CCC[C@@H]1CN1CCCC1", "assigned category": "y"}
{"compound": "CC(NCc1ccc2c(c1)[nH]/c(=N\\C(=O)c1ccc(-c3cn[nH]c3)s1)n2CC(C)(C)O)C(C)(C)C (stereo not given)", "assigned category": "y"}
{"compound": "COC1(C[S+]([O-])c2ccccc2)CCN(CCc2c[nH]c3ccc(F)cc23)CC1 (stereo not given)", "assigned category": "n"}

====

# System: SEM cells
# assay info: cell viability relative to DMSO control; higher = less cytotoxic
# experimental conditions: HPLM + 10% dialyzed FBS; 48 h; 1.71 µM
cell viability less than 90% is Met; cell viability greater than or equal to 90% is Not met.

{"compound": "CCN(C)C(=O)Oc1cccc([C@H](C)N(C)C)c1", "assigned category": "Not met"}
{"compound": "CNCC(O)C(O)C(O)C(O)CO.O=C(O)c1ccc(-c2cc3cccnc3c(-c3ccc4nonc4c3)n2)cc1", "assigned category": "Not met"}
{"compound": "CCCCCCCCc1ccc(CCC(N)(CO)CO)cc1", "assigned category": "Not met"}
{"compound": "C#Cc1cccc(Nc2ncnc3cc(OC)c(OCCCCCCC(=O)NO)cc23)c1", "assigned category": "Met"}
{"compound": "CC(NCc1ccc2c(c1)[nH]/c(=N\\C(=O)c1ccc(-c3cn[nH]c3)s1)n2CC(C)(C)O)C(C)(C)C (centres undefined)", "assigned category": "Met"}

====

# System: SEM cells
# assay info: cell viability relative to DMSO control; higher = less cytotoxic
# experimental conditions: HPLM + 10% dialyzed FBS; 48 h; 0.19 µM
Recorded cell viability values for a group of compounds are listed next.

{"compound": "CC[C@@]1(O)C[C@H](O[C@H]2C[C@H](N(C)C)[C@H](O[C@H]3C[C@H](O)[C@H](O[C@H]4CCC(=O)[C@H](C)O4)[C@H](C)O3)[C@H](C)O2)c2c(cc3c(c2O)C(=O)c2c(O)cccc2C3=O)[C@H]1C(=O)OC", "cell viability": "50%"}
{"compound": "CC(C)(C)NC(=O)[C@H]1CC[C@H]2[C@@H]3CC[C@H]4NC(=O)\\C=C/[C@]4(C)[C@H]3CC[C@]12C", "cell viability": "94.4%"}
{"compound": "OCCCNc1cc(-c2ccnc(Nc3cccc(Cl)c3)n2)ccn1", "cell viability": "45.7%"}
{"compound": "COc1cc(N[S+](=O)([O-])c2ccc(N)cc2)nc(OC)n1", "cell viability": "85.5%"}
{"compound": "N[C@@H](CC(=O)N1CCn2c(nnc2C(F)(F)F)C1)Cc1cc(F)c(F)cc1F", "cell viability": "105%"}
{"compound": "CN(C)CC/C=C1/c2ccccc2COc2ccc(CC(=O)O)cc21", "cell viability": "130%"}
{"compound": "CN1C(=O)/C=C(/NCCN(CCO)CCCC2=CC=C(C=C2)[N+]([O-])=O)N(C)C1=O", "cell viability": "136%"}
{"compound": "COC1(C[S+]([O-])c2ccccc2)CCN(CCc2c[nH]c3ccc(F)cc23)CC1 (stereo not drawn)", "cell viability": "111%"}

====

# Test system: SEM cells
# assay info: cell viability relative to DMSO control; higher = less cytotoxic
# experimental conditions: RPMI 5 mM glucose + 10% dialyzed FBS; 48 h; 1.71 µM
Recorded cell viability values for a group of compounds are listed next.

{"chemical structure": "N\\C1=N\\C2=C(N=C[N]2COC(CO)CO)C(=O)N1", "cell viability": "103%"}
{"chemical structure": "COc1ccc(Nc2cc(-c3cnc(N)nc3)nc(N3CCOCC3)n2)cn1", "cell viability": "89.7%"}
{"chemical structure": "CN[S+](=O)([O-])CCc1ccc2[nH]cc(C3CCN(C)CC3)c2c1", "cell viability": "97%"}

====

# System: NOMO1
# assay info: cell viability relative to DMSO control; higher = less cytotoxic
# experimental conditions: HPLM + 10% dialyzed FBS; 48 h; 1.71 µM
Recorded cell viability values for a group of compounds are listed next.

{"compound": "Cc1cc(Cl)ccc1OCCCC(=O)NO", "cell viability (%)": 112}
{"compound": "Cc1c(C(=O)Nc2cccc(C(F)(F)F)c2)cc(-c2ccccc2)n1CCCN1CCOCC1", "cell viability (%)": 116}
{"compound": "COc1ccc(Nc2cc(-c3cnc(N)nc3)nc(N3CCOCC3)n2)cn1", "cell viability (%)": 79.9}
{"compound": "N\\C1=N\\C2=C(N=C[N]2COC(CO)CO)C(=O)N1", "cell viability (%)": 109}
{"compound": "COc1cc(N[S+](=O)([O-])c2ccc(N)cc2)nc(OC)n1", "cell viability (%)": 112}
{"compound": "C#C[C@]1(O)CC[C@H]2[C@@H]3CCc4cc(OC)ccc4[C@H]3CC[C@@]21C", "cell viability (%)": 105}
{"compound": "O=C1CCc2ccc(OCCCCN3CCN(c4cccc(Cl)c4Cl)CC3)cc2N1", "cell viability (%)": 91.6}
{"compound": "Cc1ccc(C(=O)c2cc(O)c(O)c([N+](=O)[O-])c2)cc1", "cell viability (%)": 89.5}
{"compound": "CCNc1cc(NC2CCC(O)CC2)nc(Nc2ccc3c(ccn3Cc3ccccc3)c2)n1 (centres undefined)", "cell viability (%)": 139}
{"compound": "COC[C@H]1OC(=O)C2=COC3=C2[C@@]1(C)\\C4=C(\\[C@@H]5CC[C@H](O)[C@@]5(C)C[C@H]4OC(C)=O)C3=O", "cell viability (%)": 113}
{"compound": "CC(C)(C)c1cc(C(=O)O)c(NC(=O)Nc2ccc3[nH]ncc3c2)s1", "cell viability (%)": 93.9}
{"compound": "CN(C)CCCNC(=O)c1ccc(-c2cc(O)c3ncccc3c2)cc1", "cell viability (%)": 98.8}
{"compound": "CC[C@@]1(O)C[C@H](O[C@H]2C[C@H](N(C)C)[C@H](O[C@H]3C[C@H](O)[C@H](O[C@H]4CCC(=O)[C@H](C)O4)[C@H](C)O3)[C@H](C)O2)c2c(cc3c(c2O)C(=O)c2c(O)cccc2C3=O)[C@H]1C(=O)OC", "cell viability (%)": 82}
{"compound": "COC1=CC=C(C=C1)C2CC(=N/N2C3=CC=C(C=C3)[S+](N)([O-])=O)\\C4=CC=CC=C4 (centres undefined)", "cell viability (%)": 56.1}

====

# Test system: SEM cells
# assay info: cell viability relative to DMSO control; higher = less cytotoxic
# experimental conditions: RPMI 5 mM glucose + 10% dialyzed FBS; 48 h; 46.1 µM

{"compound": "CC1=C(CC/C(C)=C/CCC2=CCC(C3=CC(=O)OC3O)OC2O)C(C)(C)CCC1 (configuration not stated)", "cell viability": "129%"}
{"compound": "CC(C)[C@H](CO)Nc1nc(Nc2cccc(Cl)c2)c2ncn(C(C)C)c2n1", "cell viability": "1.74%"}
{"compound": "C[C@@H]1C[C@H]2[C@@H]3CC\\C4=C\\C(=O)\\C=C/[C@]4(C)[C@@]3(Cl)[C@@H](O)C[C@]2(C)[C@@]1(OC(=O)C5=CC=CO5)C(=O)CCl", "cell viability": "36.5%"}
{"compound": "OCCCNc1cc(-c2ccnc(Nc3cccc(Cl)c3)n2)ccn1", "cell viability": "3.62%"}
{"compound": "N[C@@H](CC(=O)N1CCn2c(nnc2C(F)(F)F)C1)Cc1cc(F)c(F)cc1F", "cell viability": "98.6%"}
{"compound": "C[N+](C)([O-])CCNc1ccc(NCC[N+](C)(C)[O-])c2c1C(=O)c1c(O)ccc(O)c1C2=O", "cell viability": "12%"}
{"compound": "CO[C@@H]1C(N(C)C(=O)c2ccccc2)C[C@H]2O[C@]1(C)n1c3ccccc3c3c4c(c5c6ccccc6n2c5c31)C(=O)NC4=O (some centres not stated)", "cell viability": "8.6%"}

====

# Test system: SEM cells
# assay info: cell viability relative to DMSO control; higher = less cytotoxic
# experimental conditions: RPMI 5 mM glucose + 10% dialyzed FBS; 48 h; 5.12 µM
Recorded cell viability values for a group of compounds are listed next.
measured property: cell viability (%)

{"chemical structure": "CNCC(O)C(O)C(O)C(O)CO.O=C(O)c1ccc(-c2cc3cccnc3c(-c3ccc4nonc4c3)n2)cc1", "study system": "SEM cells", "measured property": "cell viability", "observed": 127}
{"chemical structure": "CCCCCCCCCCCCCCCCCCOP(=O)([O-])OC1CC[N+](C)(C)CC1", "study system": "SEM cells", "measured property": "cell viability", "observed": 87.6}
{"chemical structure": "CCCCN(CCCC)C(=O)CN1C[C@H](c2ccc3c(c2)OCO3)[C@@H](C(=O)O)[C@@H]1c1ccc(OC)cc1", "study system": "SEM cells", "measured property": "cell viability", "observed": 74.8}
{"chemical structure": "CC(C)(C)NC(=O)[C@@H]1CN(Cc2cccnc2)CCN1C[C@@H](O)C[C@@H](Cc1ccccc1)C(=O)N[C@H]1c2ccccc2C[C@H]1O.O=S(=O)(O)O", "study system": "SEM cells", "measured property": "cell viability", "observed": 96.9}
{"chemical structure": "OC1=CC=C(C=C1)\\C2=C\\C(=O)C3=C(O2)C=C(O)C=C3O", "study system": "SEM cells", "measured property": "cell viability", "observed": 93.6}
{"chemical structure": "Cc1[nH]c(/C=C2\\C(=O)Nc3ccc([S+](=O)([O-])Cc4c(Cl)cccc4Cl)cc32)c(C)c1C(=O)N1CCC[C@@H]1CN1CCCC1", "study system": "SEM cells", "measured property": "cell viability", "observed": 42}
